Known koff of a selection of binders
# testedOn: T1, human IL-8 (interleukin-8) (human, UniProt P10145 28-99, limits assumed)
# T1 construct: also called recombinant human IL-8
# T1 sequence (looked up): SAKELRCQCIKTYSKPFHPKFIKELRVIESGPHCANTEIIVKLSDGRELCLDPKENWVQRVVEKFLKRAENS
# runDescription: SPR (Biacore T100, 25 C), antibody captured on anti-human IgG, IL-8 as analyte, 1:1 model, Run 1
All answers are understood in s⁻¹, so give the number only.

chimeric antibody HcLc made from murine 1C1.5E5 (antibody, human IgG1, kappa, V domains shown, Murine variable regions on human IgG1 and human kappa constant regions; also called chimera) VH: QVQLQQPGVELVMPGASVKLSCKASGYTFTSYWMHWVKQRPGQGLEWIGEIDPSDSNTNYNQKFKGKATLTLDKSSSTAYMQLTSLTSEDSAVYYCARELLHAVYWGQGTLVTVSS VL: DIQMTQSPSSLSASLGGKVTITCTASQDIHKYISWFQHKPGKGPRLLIHYTSTLQPGIPSRFSGSGSGRDYSFSISNLEPEDVATYYCLQYDNLWTFGGGTKLDIKR | 0.000506
humanized antibody A1L0 (antibody, human IgG1, kappa, V domains shown, Humanized 1C1.5E5, human IgG1/kappa; also called AIL0) VH: QVQLVQSGAEVKKPGASVKVSCKASGYTFTSYWMHWVRQAPGQGLEWMGEIDPSDSNTNYNQKFKGKVTMTRDTSISTAYMELSRLRSDDTAVYYCARELLHAVYWGQGTLVTVSS VL: DIQMTQSPSSLSASVGDRVTITCTASQDIHKYISWYQQKPGKAPKLLIYDTSTLQPGVPSRFSGSGSGTDFTFTISSLQPEDIATYYCLQYDNLWTFGQGTKVEIKR | 0.000735
humanized antibody A0L0 (antibody, human IgG1, kappa, V domains shown, Humanized 1C1.5E5, human IgG1/kappa) VH: QVQLVQSGAEVKKPGASVKVSCKASGYTFTSYWMHWVRQAPGQGLEWMGEIDPSDSNTNYNQKFKGRVTMTRDTSISTAYMELSRLRSDDTAVYYCARELLHAVYWGQGTLVTVSS VL: DIQMTQSPSSLSASVGDRVTITCTASQDIHKYISWYQQKPGKAPKLLIYDTSTLQPGVPSRFSGSGSGTDFTFTISSLQPEDIATYYCLQYDNLWTFGQGTKVEIKR | 0.000791

Let us examine a further case.
Problem: Provide one value: measured koff of humanized antibody A0L1 (antibody, human IgG1, kappa, V domains shown, Humanized 1C1.5E5, human IgG1/kappa) VH: QVQLVQSGAEVKKPGASVKVSCKASGYTFTSYWMHWVRQAPGQGLEWMGEIDPSDSNTNYNQKFKGRVTMTRDTSISTAYMELSRLRSDDTAVYYCARELLHAVYWGQGTLVTVSS VL: DIQMTQSPSSLSASVGDRVTITCTASQDIHKYISWYQQKPGKAPKLLIHYTSTLQPGVPSRFSGSGSGTDFTFTISSLQPEDIATYYCLQYDNLWTFGQGTKVEIKR
Result: 0.001
